Here the recorded viability increase is given for each entry.
Assay: H69AR viability gain despite doxorubicin, primary screen, MRP-1 activator project, H69AR cells, CellTiter-Glo (AID 799);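 further: MRP-1 overexpressing cells given doxorubicin 25 µM after compound pretreatment; 18-22 h compound pretreatment then 72 h with doxorubicin before readout; 0% = doxorubicin-only wells and 100% = vehicle-treated cells without doxorubicin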
Details: viability rescue, at 10 µM, active compounds read high
About 840 (0.6%) of roughly 140,000 compounds were called active. The entries come from a sample that favours actives as a whole.
Only the number, expressed in %, is required.

>  <compound>
CN1/C(=C\C(=O)c2oc3ccccc3c2N)C(C)(C)c2ccccc21

>  <viability increase (%)>
5.19

$$$$

Write down viability increase measured for item "Cc1ccc(C(=O)C(=S)N2CCOCC2)cc1" -2

Write down viability increase measured for item "CC(C)CNC(=O)COC(=O)/C=C/c1ccco1" 1.16

Write down viability increase measured for item "Cc1ccccc1-n1c(C)cc(/C=C2\NC(=O)NC2=O)c1C" -4.81

====

Here the recorded viability increase is given for each entry.
Assay: H69AR viability gain despite doxorubicin, primary screen, MRP-1 activator project, H69AR cells, CellTiter-Glo (AID 799);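 further: MRP-1 overexpressing cells given doxorubicin 25 µM after compound pretreatment; 18-22 h compound pretreatment then 72 h with doxorubicin before readout; 0% = doxorubicin-only wells and 100% = vehicle-treated cells without doxorubicin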
Details: viability rescue, at 10 µM, active compounds read high
The whole screen tested about 140,000 compounds, of which about 840 (0.6%) were called active. Only a selection was taken, and actives are over-represented in it overall.
Only the number, expressed in %, is required.

Consider the worked cases shown below.
>  <compound>
COc1cc2c(cc1NC(=O)COC(=O)/C=C/c1ccccc1)oc1ccccc12

>  <observed>
-4.74

$$$$
>  <compound>
Cc1cc(C)c(NC(=S)N2CCCC2C(=O)O)c(C)c1 (stereo unspecified)

>  <observed>
0.6

$$$$
>  <compound>
COC(=O)c1onc(-c2c(OC)cc(OC)cc2OC)c1C(=O)OC

>  <observed>
1.1

$$$$
>  <compound>
COc1ccc(-c2nn(-c3ccccc3)cc2C(=O)Nc2nccs2)cc1OC

>  <observed>
-4.27

$$$$
>  <compound>
CCOC(=O)NC(=O)CSc1nnc(SCCC(=O)O)s1

>  <observed>
1.73

$$$$

Next compound, viability increase to be filled in.
Write down viability increase measured for item CC(O)c1nc2ccccc2n1Cc1ccc([N+](=O)[O-])cc1 (stereo unspecified) -1.44

====

Assay: H69AR viability gain despite doxorubicin, primary screen, MRP-1 activator project, H69AR cells, CellTiter-Glo (AID 799);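 further: MRP-1 overexpressing cells given doxorubicin 25 µM after compound pretreatment; 18-22 h compound pretreatment then 72 h with doxorubicin before readout; 0% = doxorubicin-only wells and 100% = vehicle-treated cells without doxorubicin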
Conditions: viability rescue, at 10 µM
Among all 140,000 compounds or so, about 840 (0.6%) were called active.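 The calls were made as follows: active = viability gain under doxorubicin at or above a set limit, the compound median plus 3 SD (cut at about 4.7% in these data); inactive = the rest.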 This is one part of a sample in which actives are shown more often than they occur.
Pick one: active, inactive

A selection of reference data follows.
>  <compound>
CCOP(=O)(OCC)C(Nc1cccc(C)c1)c1ccc(F)cc1 (stereo not given)

>  <group-label>
inactive

$$$$
>  <compound>
COc1ccc(C)cc1NC(=O)CCC(=O)Nc1nnc(C(F)(F)F)s1

>  <group-label>
inactive

$$$$
>  <compound>
S=C(NCCc1ccccc1)NCc1ccccc1Cl

>  <group-label>
inactive

$$$$

Outcome logged for "Cc1[nH]n(-c2ccccc2)c(=O)c1/C=N/NC(=O)c1ccoc1C" in this assay: inactive

Outcome logged for "O=C(N/N=C/c1ccc(Br)o1)c1cncc(Br)c1" in this assay: inactive

Outcome logged for O=C(NCc1ccco1)C1CCCN(S(=O)(=O)c2ccccc2)C1 (stereo not given) in this assay: inactive

====

Assay: H69AR viability gain despite doxorubicin, primary screen, MRP-1 activator project, H69AR cells, CellTiter-Glo (AID 799);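 further: MRP-1 overexpressing cells given doxorubicin 25 µM after compound pretreatment; 18-22 h compound pretreatment then 72 h with doxorubicin before readout; 0% = doxorubicin-only wells and 100% = vehicle-treated cells without doxorubicin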
Details: viability rescue, at 10 µM, active compounds read high
About 840 (0.6%) of roughly 140,000 compounds were called active. The entries come from a sample that favours actives as a whole.
observable: viability increase (%)
Only the number, expressed in %, is required.

>  <smiles-structure>
C=CCNC(=O)c1ccccc1NC(=O)c1ccc(Cl)c(S(=O)(=O)Nc2cccc(C)c2C)c1

>  <viability increase [%]>
5.97

$$$$
>  <smiles-structure>
Cc1ccc(C)c(NS(=O)(=O)c2ccc(OCC(=O)NCc3cccnc3)cc2)c1

>  <viability increase [%]>
-4.52

$$$$
>  <smiles-structure>
O=C1N/C(=C/c2cccn2-c2ccccc2)C(=O)N1c1cccc(Cl)c1

>  <viability increase [%]>
-0.22

$$$$
>  <smiles-structure>
Cc1ccc(C(=O)/C=C/Nc2ccc(S(=O)(=O)Nc3onc(C)c3C)cc2)cc1

>  <viability increase [%]>
-1.44

$$$$

Next molecule, viability increase to be filled in.
Write down viability increase measured for item "COc1cccc(/C=N/Nc2ncc(C(F)(F)F)cc2Cl)c1O" -4.98
